This collection of values is drawn from patent US8183262B2.

observable: melting point (°C)

Before answering, review these 3 worked examples.
- Cc1cc(-c2ccc(C(F)(F)F)cc2)nc(-c2cccc(-c3ccc(S(N)(=O)=O)s3)c2)n1: 225
- NS(=O)(=O)c1cccc(-c2cccc(-c3nc(-c4ccc(C(F)(F)F)c(F)c4)cc(C(F)(F)F)n3)c2)c1: 227.5
- Cc1cc(-c2ccc(C(F)(F)F)cc2)nc(-c2cccc(-c3cccc(S(N)(=O)=O)c3)c2)c1: 200

[A] Cc1cc(-c2ccc(C(F)(F)F)c(C)c2)nc(-c2cccc(-c3ccc(N)nc3)c2)n1
[B] NS(=O)(=O)c1cccc(-c2cn(-c3nc(-c4ccc(Cl)c(Cl)c4)cc(C(F)(F)F)n3)cn2)c1
Query :: # argmax over melting point for candidates A and B When you have decided, please share the label of that item.
Result :: B
